# experimental context: 293.15 K; 101.33 kPa; Liquid; Vibrating tube method
readout kind: mass density (kg/m3)

molecule	unit tag	quantitative readout
CCCCC(CC)CCC(=O)[O-].CCCCCCCC[N+](C)(CCCCCCCC)CCCCCCCC [methyltrioctylammonium 4-ethyloctanoate]	kg/m3	893.1
CCCCCCCC/C=C\CCCCCCCC(=O)[O-].CCCCCCCC[N+](C)(CCCCCCCC)CCCCCCCC [methyltrioctylammonium oleate]	kg/m3	890.5
CCCCCCCC/C=C\CCCCCCCC(=O)[O-].CCCCCC[N+](CCCCCC)(CCCCCC)CCCCCC [tetrahexylammonium oleate]	kg/m3	889.9
CCCCCCCC/C=C\CCCCCCCC(=O)[O-].CCCCCCCC[N+](CCCCCCCC)(CCCCCCCC)CCCCCCCC [tetraoctylammonium oleate]	kg/m3	878.4

Every entry's value here was drawn from the NIST ThermoML archive (doi:10.1016/j.jct.2016.04.021).
